# Test system: EKVX
# method notes: NCI tumour cell line growth inhibition, 48 h
Activity calls are given as the source filed them. Rule as the data show it: active = GI50 up to about 1.1 µM and inactive = higher.
I would appreciate it if you answered using one of these outcomes: active, inactive

Here are 4 molecules together with their reported answers.
{"molecule": "N#Cc1ccccc1OCCOc1ccccc1C#N", "group label": "inactive"}
{"molecule": "COc1ccc2[nH]c3c(c2c1)CCc1ccccc1-3", "group label": "inactive"}
{"molecule": "CCOC(=O)c1c(N)nn2c1cc1cccccc12", "group label": "inactive"}
{"molecule": "N#Cc1c(NC(=S)Nc2ccccc2)sc2c1CCCC2", "group label": "inactive"}

Problem: I would be grateful if you could indicate the recorded call for COc1ccc(NC(C)=O)cc1N1C(=O)/C(=C\c2ccccc2)SC1c1cc(OC)c(OC)c(OC)c1 (stereo unspecified) .
Solution: inactive

Problem: Please state the recorded outcome for this molecule: "CC(=O)c1cccc(Nc2nc3ccc(Cl)cc3c3[nH]c4ccccc4c23)c1"
Solution: inactive

---

# Tested on: TK-10
# method notes: NCI tumour cell line growth inhibition, 48 h
Calls of active or inactive are those of the source. Rule as the data show it: active = GI50 up to about 1.1 µM and inactive = higher.
The categories you may choose from are class 1 = active, class 0 = inactive

{"compound": "CCOC(=O)N1N=NC2C3OC(C[C@@]3(C#N)OC(C)=O)[C@H]21 (some centres undefined)", "group label": "class 0"}
{"compound": "C/C(=N/NC(=S)N1CC2CCC(CC2)C1)c1cnccn1", "group label": "class 1"}
{"compound": "CNC(=O)C1(C#N)C(c2ccccc2)C(C#N)(C(=O)NC)C1c1ccccc1 (centres undefined)", "group label": "class 0"}

We next turn to a different compound, shown below.
Problem: Dear colleague, could you share the recorded outcome for "O=C1/C(=C/c2cccc(Br)c2)CSC/C1=C\c1cccc(Br)c1" when you have a moment?
Solution: class 0

---

# GI50 listing for each entry below
# Test system: SK-MEL-28
# method notes: NCI tumour cell line growth inhibition, 48 h
Active and inactive are the calls of the source. Cut-off read from the data, not from the text of the source: active = GI50 up to about 1.1 µM and inactive = higher.

These recorded examples may help you get a feel for the data.
{"molecule": "N#Cc1ccccc1OCCOc1ccccc1C#N", "result": "> 100 µM (inactive)"}
{"molecule": "CC(=O)O[C@H]1C(=O)[C@@]2(C)[C@H]([C@H](OC(=O)c3ccccc3)[C@@]3(O)C[C@H](O)C(C)=C1C3(C)C)[C@]1(OC(C)=O)CO[C@@H]1C[C@@H]2O", "result": "64.9 µM (inactive)"}
{"molecule": "CCOC(=O)c1c(CN2CCCC2)n(-c2ccccc2)c2cc(Br)c(OC)cc12", "result": "15.6 µM (inactive)"}
{"molecule": "COc1cccc(CC(C)NCC(O)c2ccc(O)c(O)c2)c1 (stereo not given)", "result": "52.1 µM (inactive)"}
{"molecule": "Cc1cc2c([N+](=O)[O-])cc3c(c2o1)C(=O)C=CC3=O", "result": "8.85 µM (inactive)"}
{"molecule": "O=C1NC(=S)N(c2ccccc2)C1=O", "result": "> 100 µM (inactive)"}

Moving on to another molecule below.
Problem: Please give the measured GI50 for this molecule: CN(C)C1C(CO)OC(n2cnc3c(N)ncnc32)C1O (stereo not given)
Solution: > 100 µM (inactive)

---

# System: UACC-62
# method notes: NCI tumour cell line growth inhibition, 48 h
Active and inactive are the calls of the source. No stated cut-off is given here; in the data, active = GI50 up to about 1.1 µM and inactive = higher.
Result category, one only: active, inactive

Consider the following illustrative entries.
{"query smiles": "C/C(CC(=O)Nc1ccccc1)=N\\NC(N)=S", "group label": "inactive"}
{"query smiles": "CCO/C=N\\c1c(C#N)c(-c2ccc(Cl)cc2)cn1-c1ccc(C)cc1", "group label": "inactive"}
{"query smiles": "O=[N+]([O-])c1cccc(/C=N/C23CC4CC(CC(C4)C2)C3)c1", "group label": "inactive"}

Problem: Per the assay record, what outcome was assigned to "CCCC(=O)Nc1cc(/C=C/C(=O)N2C[C@@H]3C[C@]34C2=CC(=O)c2[nH]cc(C)c24)n(C)c1" ?
Solution: active

Problem: What was the test verdict on "Cn1c(N=P(c2ccccc2)(c2ccccc2)c2ccccc2)c([N+](=O)[O-])c(=O)n(C)c1=O" ?
Solution: inactive

Problem: Can you look up the reported call for "COc1ccccc1C(=O)c1c(N2CCCCC2)c(=O)c1=O" for me?
Solution: inactive

Problem: Call for entry "Cc1nnc(N/N=C2/C(=O)Nc3ccccc32)nc1O" :
Solution: inactive

---

# System: BT-549
# method notes: NCI tumour cell line growth inhibition, 48 h
The source made the active and inactive calls. Rule as the data show it: active = GI50 up to about 1.1 µM and inactive = higher.
observation type: GI50

Before answering, review these 8 worked examples.
{"compound": "COc1ccc2nc(-n3c(/C=C/c4ccccc4O)nc4ccccc4c3=O)sc2c1", "test system": "BT-549", "result": "27.5 µM (inactive)"}
{"compound": "C=CCn1c(-c2ccc(/N=N/Nc3ccc(-c4n[nH]c(=S)n4CC=C)cc3)cc2)n[nH]c1=S", "test system": "BT-549", "result": "2.3 µM (inactive)"}
{"compound": "Cc1cccc(NC(=O)CC(=O)N2N=C(N3c4ccccc4Sc4ccccc43)CC2c2ccccc2)c1 (centres undefined)", "test system": "BT-549", "result": "> 100 µM (inactive)"}
{"compound": "C[C@]12OC[C@H](c3ccccc3)N1C(=O)C1[C@H]2CC12SCCS2 (some centres undefined)", "test system": "BT-549", "result": "> 100 µM (inactive)"}
{"compound": "N=c1sc2ccccc2n1CC[S-].c1ccc2c(c1)sc1[n+]2CCS1", "test system": "BT-549", "result": "23.1 µM (inactive)"}
{"compound": "Nc1nc(=O)n(C2CC(O)C(CO)O2)c2nc(-c3ccc(-c4ccccc4)cc3)cnc12 (centres undefined)", "test system": "BT-549", "result": "> 100 µM (inactive)"}
{"compound": "O=C1/C(=C/c2ccc(Cl)cc2)CSC/C1=C\\c1ccc(Cl)cc1", "test system": "BT-549", "result": "2.21 µM (inactive)"}
{"compound": "O=C1C2CC(Cl)C(SSC3CC4C(=O)N(SC(Cl)(Cl)C(Cl)Cl)C(=O)C4CC3Cl)CC2C(=O)N1SC(Cl)(Cl)C(Cl)Cl (centres undefined)", "test system": "BT-549", "result": "1.7 µM (inactive)"}

Shift focus to the following entry.
Problem: Can you look up GI50 on BT-549 for "Clc1ccc(/C=N/c2ccc3c(c2)Cc2ccccc2-3)c(Cl)c1" ?
Solution: > 100 µM (inactive)

---

# Test system: UO-31
# method notes: NCI tumour cell line growth inhibition, 48 h
Activity calls are given as the source filed them. Rule as the data show it: active = GI50 up to about 1.1 µM and inactive = higher.
observation type: GI50

{"compound": "CC1C=C(OC(=O)c2ccccc2)C(=O)C(n2cc(F)c(=O)[nH]c2=O)O1 (stereo not given)", "GI50": "87.7 µM (inactive)"}
{"compound": "O=C1/C(=C/c2ccc(Cl)cc2)CSC/C1=C\\c1ccc(Cl)cc1", "GI50": "1.92 µM (inactive)"}
{"compound": "O=[N+]([O-])C(=C/c1cccs1)/C(=C\\c1cccs1)[N+](=O)[O-]", "GI50": "1.2 µM (inactive)"}
{"compound": "O=C1C(Cl)=C(NCCN2CCOCC2)C(=O)c2ncccc21", "GI50": "1.65 µM (inactive)"}

Problem: For "CN(C)CCC(/C=C/c1ccccc1)=N\Nc1ccc(Cl)c(Cl)c1" , what is its reported GI50?
Solution: 1.64 µM (inactive)

---

# Test system: SR
# method notes: NCI tumour cell line growth inhibition, 48 h
Calls of active or inactive are those of the source. No stated cut-off is given here; in the data, active = GI50 up to about 1.1 µM and inactive = higher.
Could you please pick one outcome from this set? YES for active, NO for inactive

Would you please look over these solved cases?
{"compound": "Brc1ccccc1/C=N\\C12CC3CC(CC(C3)C1)C2", "group label": "NO"}
{"compound": "COc1cc2c(cc1OC)C1Cc3cc(OC)c(OC)cc3N1CC2 (configuration not stated)", "group label": "NO"}
{"compound": "O=C(/C=C/c1ccc(Cl)cc1)c1ccncc1", "group label": "NO"}
{"compound": "O=CN1CCN(C=S)CC1", "group label": "NO"}
{"compound": "CCOP(=O)(OCC)/C(C#N)=C/c1[nH]cnc1C", "group label": "NO"}
{"compound": "O=C(/C=C\\c1ccccc1O)c1ccc(O)cc1O", "group label": "NO"}

Problem: Which result was noted for this compound in the test: "CO[C@H]1SC[C@H](OC(C)=O)[C@H](OC(C)=O)[C@H]1OC(C)=O"
Solution: NO

Problem: Any idea what this test logged for "Cc1cnc2[nH]c(-c3cccc(F)c3)cc(=O)c2c1" ?
Solution: YES

---

# System: LOX IMVI
# method notes: NCI tumour cell line growth inhibition, 48 h
Calls of active or inactive are those of the source. Cut-off read from the data, not from the text of the source: active = GI50 up to about 1.1 µM and inactive = higher.
Parameter GI50: see the listing below.

Use the examples below as a reference point.
{"compound": "N#Cc1c(N)nc(S)c(C#N)c1-c1ccccc1", "test system": "LOX IMVI", "GI50": "> 100 µM (inactive)"}
{"compound": "N#CCCN(c1ccc(/C=C2\\N=C(c3ccc(Cl)cc3)OC2=O)cc1)S(=O)(=O)c1ccccc1", "test system": "LOX IMVI", "GI50": "> 100 µM (inactive)"}
{"compound": "Cn1c(=O)oc2cc(C3CCC(=O)N3Cc3csc(-c4ccccc4)n3)ccc21 (configuration not stated)", "test system": "LOX IMVI", "GI50": "> 100 µM (inactive)"}
{"compound": "C=CCNC(=S)N1CC(C)C(=O)Nc2ccccc21 (configuration not stated)", "test system": "LOX IMVI", "GI50": "> 100 µM (inactive)"}
{"compound": "O=C1/C(=C/c2ccc(O)cc2)CCc2ccccc21", "test system": "LOX IMVI", "GI50": "20 µM (inactive)"}

Problem: Can you look up GI50 on LOX IMVI for NC(=S)C1=C(N)Oc2c(c(=O)oc3ccccc23)C1c1ccc(Br)cc1 (configuration not stated) ?
Solution: > 100 µM (inactive)

Problem: Record "O=C(Nc1cccc(C(F)(F)F)c1)c1cc(Br)cc(Br)c1O" : what is its GI50 with LOX IMVI?
Solution: 2.06 µM (inactive)

Problem: Reported GI50 for LOX IMVI, given "O=C(O)Cc1ccc([N+](=O)[O-])cc1[N+](=O)[O-]" ?
Solution: > 100 µM (inactive)

Problem: Write down the reported GI50 of "CN(C)CCCc1cccc2[nH]c3c(c12)CN(C)CC3" , test system: LOX IMVI.
Solution: 30.1 µM (inactive)

Problem: State its GI50 on LOX IMVI: CCOc1cc(NC(C)=O)ccc1C(=O)NN1C(=O)CSC1c1ccc(O)c(OC)c1 (configuration not stated)
Solution: 87.3 µM (inactive)
